This collection of values is drawn from paper PMC12527922.

- tested-target: α7–5HT3 mutant chimeric channels (Homo sapiens, UniProt P36544, Q139K)
- Sequence (P36544 23-224 Q139K, one chain of several): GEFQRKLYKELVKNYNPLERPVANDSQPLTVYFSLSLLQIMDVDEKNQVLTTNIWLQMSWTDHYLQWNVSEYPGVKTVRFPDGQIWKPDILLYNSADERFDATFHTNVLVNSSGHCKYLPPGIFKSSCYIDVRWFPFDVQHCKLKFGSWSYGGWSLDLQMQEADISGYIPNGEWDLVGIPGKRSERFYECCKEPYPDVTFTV
- protocol-description: cell-based
- Format: cell-based, human α7 nAChR LBD, mouse 5HT3 IPD
- recorded-conditions: read-out: EC50 at a7 5HT3 Q139K, Avg; sheet 1d; Avg
endpoint: EC50

Ask: What value of measured EC50 is listed for COC(=O)[C@H]1[C@@H](OC(=O)c2ccccc2)C[C@@H]2CC[C@H]1N2C [cocaine] ?
Result: > 30 µM

----------
- tested-target: coca-5HT3 (α7(L141G,G175K,Y210F,Y217F)–5HT3) (Homo sapiens, UniProt P36544, G175K/L141G/Y210F/Y217F)
- Sequence (P36544 23-224 L141G/G175K/Y210F/Y217F): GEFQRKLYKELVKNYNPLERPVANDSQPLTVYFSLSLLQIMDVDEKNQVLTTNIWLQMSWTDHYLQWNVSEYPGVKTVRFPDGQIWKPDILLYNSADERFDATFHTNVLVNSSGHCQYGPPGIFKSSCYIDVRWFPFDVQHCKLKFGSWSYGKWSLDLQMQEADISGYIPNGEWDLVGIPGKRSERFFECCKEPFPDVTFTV
- Sequence (P23979 242-489, further chain): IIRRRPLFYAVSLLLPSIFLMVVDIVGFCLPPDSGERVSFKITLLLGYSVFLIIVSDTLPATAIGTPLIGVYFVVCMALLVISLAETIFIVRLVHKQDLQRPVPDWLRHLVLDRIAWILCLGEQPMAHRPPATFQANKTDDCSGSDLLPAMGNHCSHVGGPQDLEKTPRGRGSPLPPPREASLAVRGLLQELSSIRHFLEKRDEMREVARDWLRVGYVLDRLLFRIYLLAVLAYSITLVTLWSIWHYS
- protocol-description: Membrane potential assay, coca-5HT3 in HEK293
- recorded-conditions: coca-5HT3; conc 0.37 uM; ED Fig. 2c
// returns FALSE unless Response is strictly below 0.07, in which case TRUE

Ask: Does the reported Response of CC(=O)Oc1ccc2c3c1O[C@H]1[C@@H](OC(C)=O)C=C[C@H]4[C@@H](C2)N(C)CC[C@@]341 [heroin] stay below 0.07?
Result: TRUE

Ask: Does the reported Response of COC(=O)[C@H]1[C@@H](OC(=O)c2ccccc2)C[C@@H]2CC[C@H]1N2C [cocaine] stay below 0.07?
Result: FALSE

Ask: Does the reported Response of CC(N)Cc1ccccc1 (stereo not shown) [amphetamine] stay below 0.07?
Result: TRUE

Ask: Does the reported Response of COc1ccc2c3c1O[C@H]1C(=O)CC[C@@]4(O)[C@@H](C2)N(C)CC[C@]314 [oxycodone] stay below 0.07?
Result: TRUE

Ask: Does the reported Response of CN1CC[C@]23c4c5ccc(O)c4O[C@H]2[C@@H](O)C=C[C@H]3[C@H]1C5 [morphine] stay below 0.07?
Result: TRUE

Ask: Does the reported Response of CN1CCC[C@H]1c1cccnc1 [nicotine] stay below 0.07?
Result: TRUE

Ask: Does the reported Response of CN[C@@H](C)Cc1ccccc1 [methamphetamine] stay below 0.07?
Result: FALSE

----------
- tested-target: α7–5HT3 mutant chimeric channels (Homo sapiens, UniProt P36544, Q139M)
- Sequence (P36544 23-224 Q139M): as the sequence (P36544 23-224 L141G/G175K/Y210F/Y217F) above, with Q117M, G119L, K153G, F188Y, F195Y counted along it
- Sequence (P23979 242-489, further chain): as the sequence (P23979 242-489, further chain) above
- protocol-description: cell-based
- Type: cell-based, human α7 nAChR LBD, mouse 5HT3 IPD
endpoint: EC50

Ask: What value of measured EC50 is listed for COC(=O)[C@H]1[C@@H](OC(=O)c2ccccc2)C[C@@H]2CC[C@H]1N2C ?
Result: > 30 µM

----------
- tested-target: α7–GlyR mutant chimeric channels (Homo sapiens, UniProt P36544, Q139G)
- Sequence (P36544 23-230 Q139G): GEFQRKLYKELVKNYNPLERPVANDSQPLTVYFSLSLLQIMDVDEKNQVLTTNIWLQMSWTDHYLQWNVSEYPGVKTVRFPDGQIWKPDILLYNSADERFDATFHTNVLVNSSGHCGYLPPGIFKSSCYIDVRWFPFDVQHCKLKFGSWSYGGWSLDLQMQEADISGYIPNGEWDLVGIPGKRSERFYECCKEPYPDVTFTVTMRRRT
- Sequence (P23415 248-457 partner): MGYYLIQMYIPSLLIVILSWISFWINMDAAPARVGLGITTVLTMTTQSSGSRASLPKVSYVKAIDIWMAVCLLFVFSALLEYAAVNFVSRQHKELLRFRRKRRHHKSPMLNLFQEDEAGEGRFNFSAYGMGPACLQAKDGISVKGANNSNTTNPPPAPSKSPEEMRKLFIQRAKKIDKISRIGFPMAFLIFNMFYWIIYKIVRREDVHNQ
- protocol-description: Membrane potential assay screen, mutant α7–GlyR chimeric channels
- Assay type: cell-based
- recorded-conditions: EC50 at α7 GlyR Q139G, sheet 1d; single determinations
endpoint: EC50

Ask: What value of measured EC50 is listed for COC(=O)[C@H]1[C@@H](OC(=O)c2ccccc2)C[C@@H]2CC[C@H]1N2C [cocaine] ?
Result: > 30 µM

----------
- tested-target: α7–GlyR mutant chimeric channels (Homo sapiens, UniProt P36544, L131G)
- Sequence (P36544 23-229 L131G, one chain of several): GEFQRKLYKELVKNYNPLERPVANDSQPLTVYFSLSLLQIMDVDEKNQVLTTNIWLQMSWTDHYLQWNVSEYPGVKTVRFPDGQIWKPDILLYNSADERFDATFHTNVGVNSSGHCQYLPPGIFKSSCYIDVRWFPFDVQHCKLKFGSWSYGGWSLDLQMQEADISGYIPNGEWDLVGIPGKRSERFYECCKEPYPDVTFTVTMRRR
- protocol-description: Membrane potential assay screen, mutant α7–GlyR chimeric channels
- Type: cell-based
- recorded-conditions: EC50 at α7GlyR L131G, Avg, sheet 1d
pEC50: −log10 of the molar value.
endpoint: pEC50

Ask: What value of measured pEC50 is listed for COC(=O)[C@H]1[C@@H](OC(=O)c2ccccc2)C[C@@H]2CC[C@H]1N2C ?
Result: < 4.52
